The reported numbers originate from ChEMBL document CHEMBL1132464.

Molecular target: Type-1 angiotensin II receptor A (Rattus norvegicus)
Sequence (P25095 whole entry): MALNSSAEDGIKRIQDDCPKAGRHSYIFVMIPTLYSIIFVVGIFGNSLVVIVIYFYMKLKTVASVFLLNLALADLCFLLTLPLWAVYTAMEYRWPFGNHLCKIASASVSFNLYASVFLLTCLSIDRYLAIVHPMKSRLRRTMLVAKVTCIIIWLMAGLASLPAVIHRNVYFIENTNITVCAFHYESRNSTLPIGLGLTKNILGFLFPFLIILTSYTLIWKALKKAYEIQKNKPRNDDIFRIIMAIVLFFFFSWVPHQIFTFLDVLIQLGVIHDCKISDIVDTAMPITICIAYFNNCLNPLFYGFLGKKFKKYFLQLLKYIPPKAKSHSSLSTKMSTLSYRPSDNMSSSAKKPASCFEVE
Test: The compound was evaluated for the direct binding of tritiated compound to the recombinant Angiotensin II receptor, type 1 stably expressed in CHO cells.
MEASUREMENT TYPE: Kd (nM)

MOLECULE: [3H]c1ccc(S(=O)(=O)NC(=O)c2ccc(Cn3c(CNc4ccccc4C(=O)O)cnc3CCCC)cc2)c(Cl)c1
QUANTITATIVE READOUT: 1.3

I: [3H]c1nc(CCCC)n(Cc2ccc(C(=O)O)cc2)c1C([3H])Nc1cc(N=[N+]=[N-])ccc1C(=O)O (stereo not drawn)
II: [3H]c1nc(CCCC)n(Cc2ccc(C(=O)O)cc2)c1CNc1ccccc1C(=O)O
Of I versus II , which is the one with smaller reported Kd? Mark your selection by writing its label. II
(II: 3.5 nM, I: 11.8 nM)
